- protocol-text: label from the status in PepcDB records
measured-parameter: protein production

# input-sequence, endpoint-result
rows = [
    ("MSGKNIVFLVLLLFIPVSLAAHYLEWGDLIVFITAGLAILPLAAWMGAATEEIAVVVGPTLGGLLNATFGNATELIIALVALNAGLVNVVKASITGSIIGNLLLVMGLSMLLGGLRHKEQTFQPIVARVNASAMNLAVIAILLPTAMNYTAQGIGEETLQYLSVAVAVVLILVYILTLIFSMKTHAYLYDVGVAEIETEENPHPKPNILLWSGVLLVCTLLVAVESELLVDALEVATSQLGLTALFTGVILVPIVGNAAEHATAVTVAMKDKMDLSVSVAVGSSMQIALFVAPVLVIAGWILGQPMDLDFQPFELVAVVVSVLIANSISSDGKSNWLEGTLLLAAYTVLGFAFYFHPDVGGLG", "failed"),
    ("MTRSSNIPADATPNPHATAEQVAAARHDSKLAQVLYHDWEAENYDEKWSISYDQRCVDYARGRFDAIVPDEVIAQLPYDRALELGCGTGFFLLNLIQAGVARRGSVTDLSPGMVKVATRNGQALGLDIDGRVADAEGIPYDDDAFDLVVGHAVLHHIPDVELSLREVVRVLKPGGRFVFAGEPTTVGDGYARTLSTLTWRVVTNATKLPGLRGWRRPQGELDESSRAAALEALVDLHTFTPQDLQRIAHNAGAVEVQTATEEFTAAMLGWPLRTFECTVPPGRLGWGWARFAFTSWKTLGWVDANVWRHVVPKGWFYNVMITGVKPS", "failed"),
    ("MTNNQKLVGRHKRLAFMKVGTEGTYDRITGFTSLIEGKEAKEYARQYIDEATERTDVVGYATGIEYAFDRYTNNAVHEKIANITDDELLGVDAQVEIVSVDVFEEKAGGKYPARKRTYSVVPDTTGDGTDALIYSGNFKAVSEIVKGYCTTTDKWQTCTFVEGEIPAEALEHHHHHH", "not failed"),
    ("MAQQTPLYEQHTLCGARMVDFHGWMMPLHYGSQIDEHHAVRTDAGMFDVSHMTIVDLRGSRTREFLRYLLANDVAKLTKSGKALYSGMLNASGGVIDDLIVYYFTEDFFRLVVNSATREKDLSWITQHAEPFGIEITVRDDLSMIAVQGPNAQAKAATLFNDAQRQAVEGMKPFFGVQAGDLFIATTGYTGEAGYEIALPNEKAADFWRALVEAGVKPCGLGARDTLRLEAGMNLYGQEMDETISPLAANMGWTIAWEPADRDFIGREALEVQREHGTEKLVGLVMTEKGVLRNELPVRFTDAQGNQHEGIITSGTFSPTLGYSIALARVPEGIGETAIVQIRNREMPVKVTKPVFVRNGKAVA", "not failed"),
    ("MRTIWLVFIANFKRAYSNKKKFFINLLVPVAAIILAIVVNYVSSPSLNIGVNEKIKSKGGDRIVKMLKHTRGINAKVCHGELMKTEVILGKYDAVVTIKRKLGKNSFNNMSKYFEFYNVRDKKTNEDMKKLIKAYLVQNKTLNMERIVKDEQIGGLSKSERIIAFLATVLLITSVVNGAVIIRDREENTYYRYMYSPNSKFEYIFGNVIYNYIFSYIQLFIANSLMAIFGIYIGISFLKMLSYGLILTLVMTTFGTFIVCIFNKELYANMFSAAISLILSLVGGTFINYKIMPEGLRRISDVTPNRWIIKSVQYMQNGRFGSINPMMVLIAFSIMFSLAAVLVSKFHKVQFK", "failed"),
    ("MNLTKVKGNTFFIKGGTNTGIYVFEDNTALMIDPGLCGSRPRRVNKVLDENNIQVRYIINTHGHDDHYGACNQFKEYYKDVCIMSSEYDKLYIENPELFSKYIVGGKSNVFMDNILKNKMLDDIKIDKSIEAGKFELNNEMFDIIEFQGHTPGSIAVLTKDNVIFVGDLLIGDEILSKYDFLFLYDIQEQINSLEKLKNIDFEYLVLGHGKQVISKEDSYKLIEKHLNALKKYLYQIRELLVEPKSLEILLKNIINNNNLSNNYKEYHFFKSSLVSVISYLVDLEEIGYILENGELLYYTKTK", "failed"),
    ("MSTASYAFRDNLTMLRRNLLHARRYPSLTLNLLLTPVILLLLFVYVFGNVMSAGINGGHANRADYVDYLVPGILLLTVAMTSLGTAVAVCTDMTEGIMARFRTMAISRASVLIGHVIGSVLQTLMALVLVLGIGLAIGFRPDASPVEWIAAAALMALTSLAMTWLAVGIGLVSPNPEGASNIGTPLVMLPFLSSAFVPVDAMPGWFRWFAEYQPFSPLIETLRGLLLGSGIGTRNAVLAVAWCLGLSLLGYLWSKARFNREPRH", "failed"),
    ("MRLVQLSRHSIAFPSPEGALREPNGLLALGGDLSPARLLMAYQRGIFPWFSPGDPILWWSPDPRAVLWPESLHISRSMKRFHKRSPYRVTMNYAFGQVIEGCASDREEGTWITRGVVEAYHRLHELGHAHSIEVWREBELVGGMYGVAQGTLFCGESMFSRMENASKTALLVFCEEFIGHGGKLIDCQVLNDHTASLGACEIPRRNYLNYLNQMRLGRLPNNFWVPRCLFSPQE", "not failed"),
    ("AISPNRASHTLADIRNQLSTRILILDGAMGTMIQGYKLEEADYRGERFKDWHTDVKGNNDLLVLTQPHIIKQIHTDYLLAGADIIETNTFNATTIAMADYDMQSLSAEINREGARLAREACDAIEQATGKPRYVAGVLGPTNRTCSISPDVNDPGFRNIHFDELVTAYCESTRALIEGGADIIMVETIFDTLNAKAALFAIETVFDELFGANSPARLPVMISGTITDASGRTLTGQTTEAFYNSLRHIKPLSIGLNCALGPKELRPYVEELSRIAECYVSAHPNAGLPNEFGGYDETPEDMAKVIQEWAREGMLNIIGGCCGSTPEHIKVIREAVEQFAPRVLPEIPVACRLAGLEPLTIDAQTLFVNVGERTNVTGSAKF", "failed"),
    ("MGNKITVEVTVYAAIEKVWKYWNEPAHIMKWCQASPEWHVPAAQNDLKAGGTFTTTMAAKDGSMSFDFGGVYDQVKTNDLIEYTIGDGRKVRIVFTHTGDTTNIVESFDPEETNPRELQQSGWQAILNSFKSYTENNLEHHHHHH", "not failed"),
]

---

- protocol-text: label from the status in PepcDB records

# input-sequence, protein production
records = [
    ("MVINRKIIGSYTQRQIAALLTDEPPSEQPKCNVRVVEMTYTTVGVVGEPARASGVVLVPDGPQCPGPYPVLGWGSATETLRSAEQAKGIISANGDDPLVTRLASQGYVVVSTDYLGLGGSNYPYHPYLHANSEASALIDALRASRTVLQHLNTPLSNKLMLSGFSQGGHTAMATQREIEAHLSNEFSLVASAPISGPYALSQTFLDTWTGRNEVGENNFAIILGTYAIVGMQRTYRNIYSDPSQVFQDPWANQVEALFPGKKDTTDLFLGDDLPAIDQIKEYFQPGFYSDFPKNRKNPFFVDLVRNDLLNWAPRTPTLLCGSDNDTVVPFLKNTNLAIASFKKRGSRQVSVVDIGTGNRKDNSALTHLSSEELCIVKVRNEFLEKKR", "failed"),
    ("MPHSRPLSRLRASLILLLVSFIWGSAFVAQKTAFDAVEGATAPALGPLAFTGARFLLGALVVLPFALRENRQARSRGAPGAGLLAIFCGIGAVLFAASFTQQLGIIGTSVTNAGFLTALYVPLVPVVALVIFRQSVRKMIWPGAAGCLAGLWLLTGAATNGLSALTAGDLWVLVGALFWAFHVTVVGVMATRSGRPLTLAAAQFLTCGVLGWAGAFAFETPTLAGMAAIAPEIAYAGILSVGVAFTLQVVAQRHTHPAAAAIILSMEMVFASLAAVVVLGERLSGVQWLGAGLILASIIAVESAAALGDRRRGAAGALTP", "failed"),
    ("MPEHTPAPTPHRAVYGFAFYMLFTVLFLVYVTWALLPVEFGLHSYLPDKYFAVFVPFLVLVFAWFFAFLIYPAINLSMTVDVDSIASVVDPKLALPKGTEFTSWSQLQKGKVSQDSASKKASPVNCNLCRTFHQPVTRAPIPPLRFLDLQEVNTAYYN", "failed"),
]

---

- protocol-text: label from the status in PepcDB records

# input-sequence, protein production
records = [
    ("MHQQIIKFWFEELTPQNWFENNPELDKHIASRFASVLEQAARCELFNWRDSAQGRLAEIIVLDQFSRNVYRNTPKAFAQDPLALALAQEAIRLGHDQELAPEQLSFLYMPFMHSESRLIHVEAEKLFRASGLENNYDFELKHKAIIDQFGRYPHRNAILGRESTPEELAFLQQPGSSF", "not failed"),
    ("MTDYGEEQRNELEALESIYPDSFTVLSENPPSFTITVTSEAGENDETVQTTLKFTYSEKYPDEAPLYEIFSQENLEDNDVSDILKLLALQAEENLGMVMIFTLVTAVQEKLNEIVDQIKTR", "not failed"),
    ("MVSACGLIALGLDNQAARMAARLRDLAREWRALPPHAARRGAVAEQVAVLDRRHGLYSRALLLNYGALFAFVVTSLLWLGQAYWSVPPELPVLVFGLGVAMLAAMAVLVIASITLARSTIEAEAAEVLRERRAPPASGRPAPARG", "failed"),
    ("MSAAQAVDDVPLEHAGNDVSDRMSLQRGVQLYMNYCVGCHSLKYLRYSRIAADLGLSEVQVMSTLNVTGAKFGDTIMTGMPVDTSEQWFGKIPPDLSLVARVRGSDWIYTYLRSFYVDSTRPLGWNNRLFVDVSMPNPLSHLQGVQRAEYGGASQAGADRLVTGLVLVQPGQQSPAEFDQTLRDIVNFLQYAAEP", "failed"),
    ("MGICVVIPAFNAALTIEAVVRETLEQGLPLVVVDDGSEDGTADCVRGLPVNLVSHGRNRGKGAALKTGFAWALEYGFSGVITLDSDGQHDPTAITLLAETAKNDGWDILVASRFAQFNQMAGLRRHWNRFGAWCMKKRTGFQIDDSQSGFRYYSARLLRMVSLGKDGYDLEMEILMKAWQAGCTIGSVPVPARVADGRATSHFRPVRDTWNICMTFLRYMLEHHHHHH", "failed"),
    ("MVLEAFLVKKNEPNWLVVLRTVMPLGLSYIPIGLACGVLLHAAGFNHLLTALISVMVFSGGAQFLIASMLTINAPMTTIILMMFFLELRYALLGSSLSRYLKGQSLPFIFTFAFSMNDENYAVNYLKFATDKHWKPSQALMVEHYSLLFWTVSNIIGSLIGSALTINLQVVDFALTALFIYMAIMQTKSRLIILVAVLCGVLTIGFLVLMKSTLGLVVSTLLASLTGYFIERYLLAHKPESHLLYKVHDPTGQTAMEESDK", "failed"),
    ("MHLKNNQTLANGATVTIYPTTTEPTNYVVYLHGGGMIYGTKSDLPEELKELFTSNGYTVLALDYLLAPNTKIDHILRTLTETFQLLNEEIIQNQSFGLCGRSAGGYLMLQLTKQLQTLNLTPQFLVNFYGYTDLEFIKEPRKLLKQAISAKEIAAIDQTKPVWDDPFLSRYLLYHYSIQQALLPHFYGLPENGDWSAYALSDETLKTFPPCFSTASSSDEEVPFRYSKKIGRTIPESTFKAVYYLEHDFLKQTKDPSVITLFEQLDSWLKER", "not failed"),
]
